// provenance: PubChem BioAssay

I'd appreciate it if you could supply cell count values for the items below.
- test.name: viability loss with induced miR-34 in A549 – imaging, A549 dox-inducible miR-34, nuclei and caspase counts, primary screen (AID 1347080); further: test concentration not given here
- condition.notes: A549 miR-34 inducible, Hoechst nuclei count, 48 h; measured here: total cells with miR-34 induction; stronger effect = lower value
Lab note: jot down the number only; don't add units.

What value of cell count has been recorded for this entry: O=C(O)CCCCC(CCSCc1ccccc1)SCc1ccccc1 (stereo not given)
9470

Field request: cell count | item: "CNC(=O)c1cc(Oc2ccc(NC(=O)Nc3ccc(Cl)c(C(F)(F)F)c3)c(F)c2)ccn1"
2520

Which cell count reading was recorded for the compound "CCCCC(C)(C)[C@H](O)/C=C/[C@@H]1[C@@H](C/C=C\CCCC(=O)O)[C@H](O)C[C@H]1O" ?
5660

# query: cell count of entry "CCCCC[C@](C)(O)/C=C/[C@H]1[C@H](O)CC(=O)[C@@H]1C/C=C\CCCC(=O)O"
5410

// returns reported cell count for input "COC(=O)CCCCCC[C@@H]1[C@@H](CC[C@@H](O)CSc2ccccc2F)[C@H](O)C[C@@H]1O"
5920
